Data origin: paper PMC9146377

system: subgenomic replicon of HCV GT 2a (strain JFH1); test: Anti-HCV luciferase assay, genotype 2a replicon in Huh7-JFH1 cells; format: cell-based, Hepatitis C virus; details: Huh7-JFH1 cells, listed as Comp. 10a, read-out: Gt2a EC50
property.measured: EC50 (µM)
Numeric only. Scale: µM

### Prompt # get_value(readout='EC50', item= COC(=O)N[C@@H](C(=O)N1CCC[C@H]1c1ncc(-c2cccc(C#CC#Cc3cccc(-c4cnc([C@@H]5CCCN5C(=O)[C@H](NC(=O)OC)c5ccccc5)[nH]4)c3)c2)[nH]1)c1ccccc1 [Compound 10a] )
### Response 0.028

----------
tested on: HCV genotype 1b Con-1 subgenomic replicon; test: Anti-HCV luciferase assay, genotype 1b (Con1) subgenomic replicon in Huh5-2 cells; assay type: cell-based, Hepatitis C virus; conditions: Hepatitis C virus, Huh-5-2, 72 h, read-out: HCV Replicon 1b EC50, Huh5-2 cells, Con1 strain, F-Luc, 72 h; mean of three experiments
property.measured: EC50 (nM)
Numeric only. Scale: nM

Sample records with EC50:
INSERT INTO measurements (compound, assayed_system, unit_text, result_value) VALUES
  ('CCOC(=O)N[C@H](CC(C)C)C(=O)N1CCC[C@H]1c1ncc(-c2cccc(C#CC#Cc3cccc(-c4cnc([C@@H]5CCCN5C(=O)[C@@H](CC(C)C)NC(=O)OCC)[nH]4)c3)c2)[nH]1', 'HCV genotype 1b Con-1 subgenomic replicon', 'nM', 85.4),
  ('COC(=O)N[C@H](C(=O)N1CCC[C@H]1c1ncc(-c2cccc(C#CC#Cc3cccc(-c4cnc([C@@H]5CCCN5C(=O)[C@@H](NC(=O)OC)C(C)C)[nH]4)c3)c2)[nH]1)C(C)C', 'HCV genotype 1b Con-1 subgenomic replicon', 'nM', 166),
  ('COC(=O)N[C@H](CC(C)C)C(=O)N1CCC[C@H]1c1ncc(-c2cccc(C#CC#Cc3cccc(-c4cnc([C@@H]5CCCN5C(=O)[C@@H](CC(C)C)NC(=O)OC)[nH]4)c3)c2)[nH]1', 'HCV genotype 1b Con-1 subgenomic replicon', 'nM', 96.6),
  ('COC(=O)N[C@H](C(=O)N1CCC[C@H]1c1ncc(-c2cccc(C#CC#Cc3cccc(-c4cnc([C@@H]5CCCN5C(=O)[C@@H](NC(=O)OC)c5ccccc5)[nH]4)c3)c2)[nH]1)c1ccccc1', 'HCV genotype 1b Con-1 subgenomic replicon', 'nM', 62),
  ('CCOC(=O)N[C@@H](CC(C)C)C(=O)N1CCC[C@H]1c1ncc(-c2cccc(C#CC#Cc3cccc(-c4cnc([C@@H]5CCCN5C(=O)[C@H](CC(C)C)NC(=O)OCC)[nH]4)c3)c2)[nH]1', 'HCV genotype 1b Con-1 subgenomic replicon', 'nM', 97.8),
  ('COC(=O)N[C@H](CC(C)C)C(=O)N1CCC[C@H]1c1ncc(-c2ccc(C#CC#Cc3ccc(-c4cnc([C@@H]5CCCN5C(=O)[C@@H](CC(C)C)NC(=O)OC)[nH]4)cc3)cc2)[nH]1', 'HCV genotype 1b Con-1 subgenomic replicon', 'nM', 42.1);

Okay, now this compound:
### Prompt # get_value(readout='EC50', item= COC(=O)N[C@@H](C(=O)N1CCC[C@H]1c1ncc(-c2cccc(C#CC#Cc3cccc(-c4cnc([C@@H]5CCCN5C(=O)[C@H](NC(=O)OC)c5ccccc5)[nH]4)c3)c2)[nH]1)c1ccccc1 [Compound 10a] )
### Response 0.1
